System: female NMRI mice
Test: Anti-cholinergic effect: protection against death from Physostigmin
Type: in vivo
Details: relative activity, Clozapin = 1.00
Property: Anti-cholinergic effect R.A. (relative activity)

{"Compound": "C[N+]1([O-])CCN(C2=Nc3ccccc3/C(=C/C#N)c3ccccc32)CC1 [Example 44 (cis-isomer)]", "Rel": "=", "Obs Value": 0.14}
{"Compound": "CN1CCN(C2=Nc3cc(Cl)ccc3Nc3ccccc32)CC1 [Clozapin, reference compound]", "Rel": "=", "Obs Value": 1.00}
{"Compound": "N#CC=C1c2ccccc2N=C(NCCN2CCCCC2)c2ccccc21 (mixture of isomers) [Example 39 (cis-trans mixture)]", "Rel": ">", "Obs Value": 1.41}
{"Compound": "C[N+]1([O-])CCN(C2=Nc3ccccc3C(=CC#N)c3ccccc32)CC1 (mixture of isomers) [Example 44 (cis-trans mixture)]", "Rel": "=", "Obs Value": 7.12}
{"Compound": "Cc1ccc2c(c1)N=C(N1CCN(C)CC1)c1ccccc1C2=CC#N (mixture of isomers) [Example 30 (cis-trans mixture)]", "Rel": "=", "Obs Value": 0.45}
{"Compound": "C[N+]1([O-])CCN(C2=Nc3ccccc3/C(=C\\C#N)c3ccccc32)CC1 [Example 44 (trans-isomer)]", "Rel": "=", "Obs Value": 3.77}
{"Compound": "N#CC=C1c2ccccc2N=C(N2CCCNCC2)c2ccccc21 (mixture of isomers) [Example 37 (cis-trans mixture)]", "Rel": "=", "Obs Value": 2.57}
{"Compound": "CN1CCN(C2=Nc3ccccc3Cc3ccccc32)CC1 [Perlapin, reference compound]", "Rel": "<", "Obs Value": 0.66}

----------
Experiment: Acute toxicity
Settings: mouse, in vivo, ip; read-out: Toxicity LD 50
Procedure: The substances are administered intraperitoneally to groups of 5-10 female NMRI mice.
Listed here: items and their measured LD50.

{"Molecule": "CN1CCN(C2=Nc3ccccc3C(=CC#N)c3ccccc32)CC1 (mixture of isomers) [Example 17 (cis-trans mixture)]", "LD50": "121 mg/kg"}
{"Molecule": "CN1CCN(C2=Nc3ccccc3/C(=C/C#N)c3ccccc32)CC1 [Example 17 (cis-isomer)]", "LD50": "147 mg/kg"}
{"Molecule": "Cc1ccc2c(c1)N=C(N1CCN(C)CC1)c1ccccc1/C2=C\\C#N [Example 30 (cis-isomer)]", "LD50": "287 mg/kg"}
{"Molecule": "CCN1CCN(C2=Nc3ccccc3C(=CC#N)c3ccccc32)CC1 (mixture of isomers) [Example 36 (cis-trans mixture)]", "LD50": "100 mg/kg"}

----------
Tested on: female Sprague-Dawley rats
Test: Apomorphine-antagonistic effect: apomorphine-triggered jaw motions (mandibulogram)
Assay type: in vivo
Conditions: Rattus norvegicus, sc, read-out: Apomorphine antagonism ED 50%; female Sprague-Dawley rats; 1.5 mg of apomorphine/kg s.c.; dose which reduces number of jaw movements by 50%
Overview of recorded ED50 for various molecules

{"Molecule": "CCN1CCN(C2=Nc3ccccc3C(=CC#N)c3ccccc32)CC1 (mixture of isomers) [Example 36 (cis-trans mixture)]", "Rel": "=", "ED50, mg/kg": 43}
{"Molecule": "C[N+]1([O-])CCN(C2=Nc3ccccc3/C(=C/C#N)c3ccccc32)CC1 [Example 44 (cis-isomer)]", "Rel": ">", "ED50, mg/kg": 100}
{"Molecule": "Cc1ccc2c(c1)N=C(N1CCN(C)CC1)c1ccccc1C2=CC#N (mixture of isomers) [Example 30 (cis-trans mixture)]", "Rel": "=", "ED50, mg/kg": 35}
{"Molecule": "N#CC=C1c2ccccc2N=C(NCCN2CCCCC2)c2ccccc21 (mixture of isomers) [Example 39 (cis-trans mixture)]", "Rel": "=", "ED50, mg/kg": 46}
{"Molecule": "CN1CCN(C2=Nc3ccccc3C(=CC#N)c3ccccc32)CC1 (mixture of isomers) [Example 17 (cis-trans mixture)]", "Rel": "=", "ED50, mg/kg": 22}
{"Molecule": "Cc1ccc2c(c1)N=C(N1CCN(C)CC1)c1ccccc1/C2=C\\C#N [Example 30 (cis-isomer)]", "Rel": "=", "ED50, mg/kg": 85}
{"Molecule": "N#CC=C1c2ccccc2N=C(N2CCCNCC2)c2ccccc21 (mixture of isomers) [Example 37 (cis-trans mixture)]", "Rel": ">", "ED50, mg/kg": 100}
{"Molecule": "C[N+]1([O-])CCN(C2=Nc3ccccc3/C(=C\\C#N)c3ccccc32)CC1 [Example 44 (trans-isomer)]", "Rel": "=", "ED50, mg/kg": 25}
{"Molecule": "Cc1ccc2c(c1)N=C(N1CCN(C)CC1)c1ccccc1/C2=C/C#N [Example 30 (trans-isomer)]", "Rel": "=", "ED50, mg/kg": 19}
{"Molecule": "Cc1ccc2c(c1)C(=CC#N)c1ccccc1C(N1CCN(C)CC1)=N2 (mixture of isomers) [Example 31 (cis-trans mixture)]", "Rel": "=", "ED50, mg/kg": 42}
{"Molecule": "CN1CCN(C2=Nc3ccccc3/C(=C\\C#N)c3ccccc32)CC1 [Example 17 (trans-isomer)]", "Rel": "=", "ED50, mg/kg": 12}
{"Molecule": "C[N+]1([O-])CCN(C2=Nc3ccccc3C(=CC#N)c3ccccc32)CC1 (mixture of isomers) [Example 44 (cis-trans mixture)]", "Rel": "=", "ED50, mg/kg": 85}
{"Molecule": "CN1CCN(C2=Nc3ccccc3Cc3ccccc32)CC1 [Perlapin, reference compound]", "Rel": "=", "ED50, mg/kg": 22}
{"Molecule": "CN1CCN(C2=Nc3ccccc3/C(=C/C#N)c3ccccc32)CC1 [Example 17 (cis-isomer)]", "Rel": "=", "ED50, mg/kg": 46}
{"Molecule": "CCN1CCN(C2=Nc3ccccc3/C(=C\\C#N)c3ccccc32)CC1 [Example 36 (trans-isomer)]", "Rel": "=", "ED50, mg/kg": 22}
{"Molecule": "CN1CCN(C2=Nc3cc(Cl)ccc3Nc3ccccc32)CC1 [Clozapin, reference compound]", "Rel": "=", "ED50, mg/kg": 8}

----------
Test system: female NMRI mice
Assay: Anti-cholinergic effect: protection against death from Physostigmin
Type: in vivo
Conditions: Mus musculus, read-out: Anti-cholinergic effect ED 50%; oral, 30 min before Physostigmin 0.825 mg/kg s.c.; female NMRI mice; dose which protects 50% of animals against death
Property: log10 of ED50 (log10 of the value in mg/kg)

{"Compound": "C[N+]1([O-])CCN(C2=Nc3ccccc3/C(=C\\C#N)c3ccccc32)CC1 [Example 44 (trans-isomer)]", "Obs Value": 0.57}
{"Compound": "Cc1ccc2c(c1)N=C(N1CCN(C)CC1)c1ccccc1/C2=C/C#N [Example 30 (trans-isomer)]", "Obs Value": 1.09}
{"Compound": "N#CC=C1c2ccccc2N=C(N2CCCNCC2)c2ccccc21 (mixture of isomers) [Example 37 (cis-trans mixture)]", "Obs Value": 0.74}
{"Compound": "CCN1CCN(C2=Nc3ccccc3/C(=C\\C#N)c3ccccc32)CC1 [Example 36 (trans-isomer)]", "Obs Value": 0.75}
{"Compound": "CN1CCN(C2=Nc3cc(Cl)ccc3Nc3ccccc32)CC1 [Clozapin, reference compound]", "Obs Value": 1.15}
{"Compound": "C[N+]1([O-])CCN(C2=Nc3ccccc3/C(=C/C#N)c3ccccc32)CC1 [Example 44 (cis-isomer)]", "Obs Value": 2.00}
{"Compound": "CN1CCN(C2=Nc3ccccc3C(=CC#N)c3ccccc32)CC1 (mixture of isomers) [Example 17 (cis-trans mixture)]", "Obs Value": 0.80}

----------
System: female NMRI mice
Assay: Anti-cholinergic effect: protection against death from Physostigmin
Type: in vivo
Details: Mus musculus, read-out: Anti-cholinergic effect ED 50%; oral, 30 min before Physostigmin 0.825 mg/kg s.c.; female NMRI mice; dose which protects 50% of animals against death
Consider the following compounds and their measured ED50 readings.
Property: ED50 (mg/kg)

{"Compound": "CN1CCN(C2=Nc3ccccc3/C(=C\\C#N)c3ccccc32)CC1 [Example 17 (trans-isomer)]", "Target Or System": "female NMRI mice", "Rel": "=", "Obs Value": 4.7}
{"Compound": "CN1CCN(C2=Nc3ccccc3/C(=C/C#N)c3ccccc32)CC1 [Example 17 (cis-isomer)]", "Target Or System": "female NMRI mice", "Rel": "=", "Obs Value": 17.4}
{"Compound": "Cc1ccc2c(c1)N=C(N1CCN(C)CC1)c1ccccc1C2=CC#N (mixture of isomers) [Example 30 (cis-trans mixture)]", "Target Or System": "female NMRI mice", "Rel": "=", "Obs Value": 31.2}
{"Compound": "CN1CCN(C2=Nc3ccccc3Cc3ccccc32)CC1 [Perlapin, reference compound]", "Target Or System": "female NMRI mice", "Rel": ">", "Obs Value": 21.5}
{"Compound": "C[N+]1([O-])CCN(C2=Nc3ccccc3C(=CC#N)c3ccccc32)CC1 (mixture of isomers) [Example 44 (cis-trans mixture)]", "Target Or System": "female NMRI mice", "Rel": "=", "Obs Value": 1.98}
{"Compound": "Cc1ccc2c(c1)C(=CC#N)c1ccccc1C(N1CCN(C)CC1)=N2 (mixture of isomers) [Example 31 (cis-trans mixture)]", "Target Or System": "female NMRI mice", "Rel": "=", "Obs Value": 2.74}
{"Compound": "CCN1CCN(C2=Nc3ccccc3C(=CC#N)c3ccccc32)CC1 (mixture of isomers) [Example 36 (cis-trans mixture)]", "Target Or System": "female NMRI mice", "Rel": "=", "Obs Value": 7.8}
